# assaySystem: Cytochrome P450 2D6 (Homo sapiens) (UniProt P10635)
# Sequence (P10635 whole entry, looked up): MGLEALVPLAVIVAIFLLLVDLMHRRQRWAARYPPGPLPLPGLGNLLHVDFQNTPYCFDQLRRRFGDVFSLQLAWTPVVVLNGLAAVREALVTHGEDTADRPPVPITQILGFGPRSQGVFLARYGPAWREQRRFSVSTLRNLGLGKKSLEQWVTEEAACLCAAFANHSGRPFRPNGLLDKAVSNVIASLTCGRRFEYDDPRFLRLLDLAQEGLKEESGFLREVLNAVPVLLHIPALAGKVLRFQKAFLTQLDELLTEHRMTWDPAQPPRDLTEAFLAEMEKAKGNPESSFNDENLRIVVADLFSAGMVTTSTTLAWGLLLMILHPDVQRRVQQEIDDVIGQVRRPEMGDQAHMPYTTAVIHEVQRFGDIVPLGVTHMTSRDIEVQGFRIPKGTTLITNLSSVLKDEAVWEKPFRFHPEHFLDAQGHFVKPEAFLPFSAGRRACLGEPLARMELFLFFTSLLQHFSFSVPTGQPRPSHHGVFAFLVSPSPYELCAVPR
# assayInfo: Cytochrome panel assay with activity outcomes
# experimentalSetup: recombinant CYP, pro-luciferin dealkylation, luminescence, p450-cyp2d6; series mostly up to 57.1 µM
About 2,600 (16%) of roughly 16,000 compounds were called active. About 20% were inconclusive and are not listed. The sample as a whole holds a higher share of actives than the screen did.
readoutName: AC50

For orientation, consider the following solved cases.
CN(C)CC/C=C1\c2ccccc2Sc2ccc(Cl)cc21 | 2.51 µM (active)
O[C@@H]1[C@@H]2c3cc4c(cc3CN3CCC(=C[C@@H]1O)[C@H]23)OCO4 | 3.98 µM (active)
CCNC(=O)[C@@H]1O[C@@H](n2cnc3c(N)ncnc32)[C@H](O)[C@H]1O | inactive
CCN(CC)c1ccc(/C=C2/C(=O)NC(=O)N(CC3CCCO3)C2=O)cc1 (stereo not given) | inactive

Consider the molecule CC(=O)OCC1=C(C(=O)O)N2C(=O)[C@@H](N)[C@@H]2SC1 and give its recorded AC50.
inactive
